Method description: NCI Yeast Anticancer Drug Screen. Data for the rad18 strain (AID 177)
Reported conditions: S. cerevisiae rad18 mutant growth inhibition; at 3.7 µM; hits give high values
Compounds without any hit were thinned out: in the full panel of roughly 79,000, 15% have a hit. The source made the active and inactive calls. Rule as the data show it: active = growth inhibition above about 70%; inactive = the rest.
Measured property: growth inhibition

// worked examples, growth inhibition included
- Compound: "COC(COC(=O)N1CCN(C=O)CC1)C1=C(N2CC2)C(=O)C(C)=C(N2CC2)C1=O (stereo not given)"
  growth inhibition: "59% (inactive)"
- Compound: "C[N+](CCCl)(CCCl)Cc1cccc2cccc([N+](=O)[O-])c12"
  growth inhibition: "56% (inactive)"
- Compound: "C[CH2][Sn]1([CH2]C)[O]C2C(O)OC(CO)C(O)C2[O]1 (stereo not given)"
  growth inhibition: "0% (inactive)"
- Compound: "OC1CCCC2CCC[N-]C12.OC1CCCC2CCC[N-]C12.[O]=[V][OH] (stereo not given)"
  growth inhibition: "95% (active)"
- Compound: "O=C(Nc1cc(Cl)ccc1Cl)C(Cl)(Cl)Cl"
  growth inhibition: "4% (inactive)"

growth inhibition for CC1(Cl)CC(C)(/C=C/Cl)C(Cl)CC1Cl (stereo not given) ?
5% (inactive)

growth inhibition for "COc1ccc(OC)c(/C=C/[N+](=O)[O-])c1" ?
13% (inactive)

growth inhibition for O=C(O)C1C2CCC(C2)C1c1ccccc1 (stereo not given) ?
-1% (inactive)

growth inhibition for C[C@]12CCC3[C@@H](CC[C@@H]4c5nonc5CC[C@]34C)C1CCC2=O (stereo not given in full) ?
22% (inactive)

growth inhibition for CC1=C[C@H]2O[C@@H]3C[C@H]4OC(=O)/C=C\C=C\C(C(C)O)OCC(O)C(C)CC(=O)OC[C@@]2(C[C@@H]1O)[C@]4(C)[C@@]31CO1 (stereo not given in full) ?
-15% (inactive)
